Answer each item with its documented cell viability.
Test system: HepG2
Experiment Description: cell viability relative to DMSO; higher = less toxic
Condition Context: 72 h; 10 nM
Give bare numbers, in %.

Provide cell viability for all items below, preserving their order.
1. COc1cc(C=O)ccc1O [vanillin]
2. Cn1c(=O)c(F)c(Nc2ccc(I)cc2F)c2c(=O)n(C[C@@H](O)CO)cnc21 [TAK-733]
3. CCC(CC)Nc1cc(C)nc(Oc2c(C)cc(C)cc2C)c1C
4. Cc1nn(C)c2c1C(c1cccc(Cl)c1)=NCCN2 [zometapine]
5. CN1CCCN=C1/C=C/c1cccs1 [pyrantel-pamoate]

Result block:
91.9
41.2
104
105
106

----------
Tested on: Calu-3
Experiment Description: cell viability relative to DMSO; higher = less toxic
Condition Context: 72 h; 10 nM
Answer each item with its documented cell viability.
One number for each entry, in %.

Field: example entries. Status: answers known.
{"Compound": "CCOC(=O)[N-]c1c[n+](N2CCOCC2)no1 [molsidomine]", "Quantity Name": "cell viability", "Recorded Value": 88.6}
{"Compound": "CN(C)CCc1c[nH]c2ccc(CS(=O)(=O)N3CCCC3)cc12 [almotriptan]", "Quantity Name": "cell viability", "Recorded Value": 103}
{"Compound": "COc1cc(C=O)ccc1O [vanillin]", "Quantity Name": "cell viability", "Recorded Value": 107}
{"Compound": "Cc1csc(-c2nnc(Nc3ccc(Oc4ncccc4-c4ccnc(N)n4)cc3)c3ccccc23)c1 [AMG900]", "Quantity Name": "cell viability", "Recorded Value": 90.7}
{"Compound": "O=C(Nc1ccc(O)cc1)c1ccccc1O [N-salicoylaminophenol]", "Quantity Name": "cell viability", "Recorded Value": 99.1}
{"Compound": "COc1ccccc1CN[C@H]1CCCN[C@H]1c1ccccc1", "Quantity Name": "cell viability", "Recorded Value": 93.6}

Input CC(C)(O)CC(=O)NCCn1ccc2ncnc(Nc3ccc(Oc4cccc(C(F)(F)F)c4)c(Cl)c3)c21 [TAK-285] . Output cell viability: 93.7

----------
Test system: Vero E6
Experiment Description: cell viability relative to DMSO; higher = less toxic
Condition Context: 72 h; 10000 nM
Labelling: cell viability reported below 90% becomes yes; at or above becomes no.

Field: example entries. Status: answers known.
{"Compound": "N=C(N)NN=C1C=CC(=NNC(N)=S)C=C1 [ambazone]", "Category Label": "no"}
{"Compound": "O=C1CN2Cc3c(ccc(Cl)c3Cl)N=C2N1 [anagrelide]", "Category Label": "no"}
{"Compound": "CCOC(=O)Nc1ccc2c(c1)N(C(=O)CN(C)C)c1ccccc1CC2 [tiracizine]", "Category Label": "no"}
{"Compound": "Cc1cnc(NC(=O)Nc2cc(Br)c(C)cc2OC[C@@H]2CNCCO2)cn1", "Category Label": "yes"}

Continue with the compound presented below.
Query block: Determine whether this compound shows cell viability lower than 90% (ties excluded): CCN(CC)CCNC(=O)c1ccc(I)cc1 [I-BZA]
Result block: no

----------
System: HepG2
Experiment Description: cell viability relative to DMSO; higher = less toxic
Condition Context: 72 h; 1 nM
Answer each item with its documented cell viability.
Please answer using the number first and the unit second.

Field: example entries. Status: answers known.
{"Molecule": "Cc1cc(Nc2ncc(Cl)c(Nc3ccccc3S(=O)(=O)C(C)C)n2)c(OC(C)C)cc1C1CCNCC1", "Quantity Name": "cell viability", "Recorded Value": "94.5%"}
{"Molecule": "Cc1nc(Nc2ncc(C(=O)Nc3c(C)cccc3Cl)s2)cc(N2CCN(CCO)CC2)n1", "Quantity Name": "cell viability", "Recorded Value": "102%"}
{"Molecule": "O=C1OC2(c3ccccc31)c1cc(I)c(O)c(I)c1Oc1c2cc(I)c(O)c1I", "Quantity Name": "cell viability", "Recorded Value": "104%"}
{"Molecule": "Cc1nn(C)c2c1C(c1cccc(Cl)c1)=NCCN2", "Quantity Name": "cell viability", "Recorded Value": "93.3%"}
{"Molecule": "O=C(NCc1ccccn1)Nc1nnc(-c2ccco2)o1", "Quantity Name": "cell viability", "Recorded Value": "104%"}
{"Molecule": "O=C(N/N=C/c1ccccc1O)c1ccccc1O", "Quantity Name": "cell viability", "Recorded Value": "102%"}
{"Molecule": "CN(C)CCCCC(=O)Nc1ccc(NC(=S)NC(=O)c2ccc(C(C)(C)C)cc2)cc1", "Quantity Name": "cell viability", "Recorded Value": "107%"}
{"Molecule": "Cc1cc(NC(=O)Nc2ccc(F)c(F)c2)n(-c2ccccc2)n1", "Quantity Name": "cell viability", "Recorded Value": "105%"}

Provide cell viability for all items below, preserving their order.
1. C=CCN1CCCC1CNC(=O)c1cc2nn[nH]c2cc1OC (centres undefined) [alizapride]
2. Cc1cnc(NC(=O)Nc2cc(Br)c(C)cc2OC[C@@H]2CNCCO2)cn1
3. CC1=CC(=C(c2ccc(N)cc2)c2ccc(N)cc2)C=CC1=N
4. CC(C)Oc1ccc(-c2cnc3c(-c4ccnc5ccccc45)cnn3c2)cc1
5. Cn1c(=O)c(F)c(Nc2ccc(I)cc2F)c2c(=O)n(C[C@@H](O)CO)cnc21
6. Nc1nc(NCCc2ccc(O)cc2)nc2nc(-c3ccco3)nn12

Result block:
108%
106%
102%
104%
88.1%
109%

----------
Answer each item with its documented cell viability.
System: U2OS
Experiment Description: cell viability relative to DMSO; higher = less toxic
Condition Context: 72 h; 100 nM
One number for each entry, in %.

Field: example entries. Status: answers known.
{"Molecule": "CC1=CC(=C(c2ccc(N)cc2)c2ccc(N)cc2)C=CC1=N", "Quantity Name": "cell viability", "Recorded Value": 95.2}
{"Molecule": "CN1CCC2=C(C1)C(c1ccccc1)c1ccccc12 (centres undefined)", "Quantity Name": "cell viability", "Recorded Value": 93.8}
{"Molecule": "CN(C)CCN1C(=O)c2cccc3cc(NC(N)=O)cc(c23)C1=O", "Quantity Name": "cell viability", "Recorded Value": 96.4}
{"Molecule": "COc1cc(C(=O)N2CCOCC2)cc(OC)c1OC", "Quantity Name": "cell viability", "Recorded Value": 96.8}
{"Molecule": "O=C(O)CSCC(=O)NC1CCSC1=O (centres undefined)", "Quantity Name": "cell viability", "Recorded Value": 96.2}

Provide cell viability for all items below, preserving their order.
1. CCOC(=O)[N-]c1c[n+](N2CCOCC2)no1
2. CC1=C(CCC(=O)O)c2cc3[nH]c(cc4nc(cc5[nH]c(cc1n2)c(C)c5C(C)O)C(C)=C4C(C)O)c(C)c3CCC(=O)O (centres undefined)
3. Cc1ccc(-c2ccc(C)cn2)nc1
4. CC(O)CN1CCN(CC(=O)[O-])CCN(CC(=O)[O-])CCN(CC(=O)[O-])CC1.[Gd+3] (centres undefined)

Result block:
1. 104
2. 102
3. 97.8
4. 98.5

----------
Tested on: HepG2
Experiment Description: cell viability relative to DMSO; higher = less toxic
Condition Context: 72 h; 10000 nM
Quantity Name: cell viability
Please answer using the number first and the unit second.

Field: example entries. Status: answers known.
{"Compound": "CCc1nc(C(N)=O)c(Nc2ccc(N3CCC(N4CCN(C)CC4)CC3)c(OC)c2)nc1NC1CCOCC1", "cell viability": "27.9%"}
{"Compound": "CC(C)CN(C[C@@H](OP(=O)(O)O)[C@H](Cc1ccccc1)NC(=O)O[C@H]1CCOC1)S(=O)(=O)c1ccc(N)cc1", "cell viability": "98.7%"}
{"Compound": "CC1(COc2ccc(CC3SC(=O)NC3=O)cc2)CCCCC1 (stereo not given)", "cell viability": "105%"}
{"Compound": "Cc1ccc2c(c1)=C(c1ccccc1)C(C1=NN(C(=O)CCC(=O)O)C(c3ccc(Br)cc3)C1)C(=O)N=2 (stereo not given)", "cell viability": "105%"}

# context switch: different compound, same cell viability
Simply: CC(C)NCC(O)COc1cccc2ccccc12 (stereo not given) , HepG2, cell viability = 102%

----------
Tested on: Vero E6
Experiment Description: cell viability relative to DMSO; higher = less toxic
Condition Context: 72 h; 10000 nM
Quantity Name: cell viability
Please answer using the number first and the unit second.

Field: example entries. Status: answers known.
{"Compound Structure": "CCn1c(=O)n(C2=C(CO)CN(CC3CCCCCCC3)CC2)c2ccccc21", "Assayed System": "Vero E6", "cell viability": "98.9%"}
{"Compound Structure": "O=C(O)c1ccc2[nH]cc(CCCCN3CC=C(c4ccccc4)CC3)c2c1", "Assayed System": "Vero E6", "cell viability": "95.8%"}

Provide cell viability for all items below, preserving their order.
1. Cc1sc(N)c(C(=O)c2cccc(C(F)(F)F)c2)c1C
2. NC(=O)c1cccc(-c2cccc(OC(=O)NC3CCCCC3)c2)c1
3. Cc1cc(C2CCCCC2)n(O)c(=O)c1

Result block:
100%
103%
63.4%
